Hey, just so you know, these numbers are from patent US20180251562A1.

- MEASURED_ON: T1, minipig insulin receptor (INSR) on CHOK1 cells (minipig, UniProt F1SCL0 28-758; F1SCL0 763-1382)
- T1 construct: Cells expressing minipig INSR; also called minipig INSR
- TEST: flow cytometry on CHOK1 cells expressing the INSR ortholog; IgG, anti-human IgG APC detection

>  <BINDER>
XPA.15.247.2.014 IgG (antibody, V domains shown, Tested as IgG; also called XPA.15.247.014) VH: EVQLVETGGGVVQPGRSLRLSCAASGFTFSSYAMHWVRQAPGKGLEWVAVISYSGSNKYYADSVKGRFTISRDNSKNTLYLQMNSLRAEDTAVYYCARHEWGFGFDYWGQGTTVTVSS VL: DVVMTQSPLSLPVTLGQPASISCRSSQSLVYGDGNTYLNWFQQRPGQSPRRLIYKVSKRDSGVPDRFSGSGSGTDFTLKISRVEAEDVGVYYCMQGTYWPMTFGGGTKLEIKR

>  <EC50 (nM)>
0.9

$$$$
>  <BINDER>
XPA.15.247 parent antibody (IgG) (antibody, V domains shown, Tested as IgG; also called XPA.15.247 antibody) VH: EVQLVETGGGVVQPGRSLRLSCAASGFTFSSYAMHWVRQAPGKGLEWVAVISYDGSNKYYADSVKGRFTISRDNSKNTLYLQMNSLRAEDTAVYYCARHEWGFGMDVWGQGTTVTVSS VL: DVVMTQSPLSLSVTLGQPASISCRSSLSLVYGDENTYLNWFQQRPGQSPRRLLYKVSDRDSGVPDRFSGSGSGTDFTLKISRVEADDVGVYYCMQGTHWPYTFGQGTKLEIKR

>  <EC50 (nM)>
12

$$$$
>  <BINDER>
XPA.15.247.2.018 IgG (antibody, V domains shown, Tested as IgG; also called XPA.15.247.2.018 antibody) VH: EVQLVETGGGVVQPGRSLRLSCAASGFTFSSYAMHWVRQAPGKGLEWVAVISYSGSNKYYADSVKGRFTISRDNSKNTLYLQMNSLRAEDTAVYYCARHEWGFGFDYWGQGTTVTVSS VL: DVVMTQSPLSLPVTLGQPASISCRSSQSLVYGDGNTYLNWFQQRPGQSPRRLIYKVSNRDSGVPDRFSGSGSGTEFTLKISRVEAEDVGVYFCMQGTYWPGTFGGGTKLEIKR

>  <EC50 (nM)>
0.5

$$$$
>  <BINDER>
XPA.15.247.2.011 IgG (antibody, V domains shown, Tested as IgG; also called XPA.15.247.011) VH: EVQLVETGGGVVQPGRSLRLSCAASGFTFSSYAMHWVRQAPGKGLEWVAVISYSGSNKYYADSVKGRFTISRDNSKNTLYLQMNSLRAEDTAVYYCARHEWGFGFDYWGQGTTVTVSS VL: DVVMTQSPLSLPVTLGQPASISCRSSHSLVYGDGNTYLNWFHQRPGQSPRRLIYKVSNRDSGVPDRFAGSGSGTDFTLKISRVEADDFGVFYCMQGTHWPYTFGQGTKLEIKR

>  <EC50 (nM)>
1.5

$$$$
